SYSTEM_NAME: BRSK2 (human) (UniProt Q8IWQ3)
Sequence (Q8IWQ3 whole entry, looked up): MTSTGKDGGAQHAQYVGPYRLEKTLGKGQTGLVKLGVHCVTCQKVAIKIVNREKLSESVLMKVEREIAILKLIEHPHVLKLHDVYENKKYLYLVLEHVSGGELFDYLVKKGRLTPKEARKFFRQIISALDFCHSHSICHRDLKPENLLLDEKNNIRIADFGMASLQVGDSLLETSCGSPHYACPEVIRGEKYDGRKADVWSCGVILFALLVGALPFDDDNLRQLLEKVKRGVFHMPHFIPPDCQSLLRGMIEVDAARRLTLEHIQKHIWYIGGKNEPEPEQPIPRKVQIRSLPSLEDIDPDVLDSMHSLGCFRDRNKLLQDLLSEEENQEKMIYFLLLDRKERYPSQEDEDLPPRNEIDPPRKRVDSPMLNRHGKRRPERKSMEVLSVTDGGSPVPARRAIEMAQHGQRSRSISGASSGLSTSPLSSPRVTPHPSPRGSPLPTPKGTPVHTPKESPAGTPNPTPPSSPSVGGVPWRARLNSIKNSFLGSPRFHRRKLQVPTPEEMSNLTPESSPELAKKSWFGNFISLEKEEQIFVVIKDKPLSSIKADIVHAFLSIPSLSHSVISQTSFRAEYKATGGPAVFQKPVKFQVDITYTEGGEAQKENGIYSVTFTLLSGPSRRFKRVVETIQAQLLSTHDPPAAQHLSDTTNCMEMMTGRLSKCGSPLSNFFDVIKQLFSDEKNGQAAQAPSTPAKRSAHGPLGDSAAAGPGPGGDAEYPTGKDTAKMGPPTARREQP
RUN_PARAMETERS: compound 1.0 µM
per cent of control listing for selected compounds.
Give me the value, and tack the unit on after it.

The examples below pair each entry with its known result.
Could you tell me which per cent of control is on file for `COc1ccc(-c2ccc3c(N4CCOCC4)nc(N4C[C@@H](C)O[C@@H](C)C4)nc3n2)cc1CO` ?
90%

Also, `CCC(=O)N1CCN(c2ccc(-n3c(=O)ccc4cnc5ccc(-c6cnc7ccccc7c6)cc5c43)cc2C(F)(F)F)CC1` please.
102%

Note, next up: `CC(C)n1nc(-c2cc3cc(O)ccc3[nH]2)c2c(N)ncnc21`
26%

***
Fill blank: measured per cent of control of the compound `COC(=O)Nc1ccc(-c2nc(N3CCOCC3)c3cnn(C4CCN(C(=O)OC)CC4)c3n2)cc1` is ____.
95%

* * *

SYSTEM_NAME: UniProt O75385
Sequence (O75385 whole entry, looked up): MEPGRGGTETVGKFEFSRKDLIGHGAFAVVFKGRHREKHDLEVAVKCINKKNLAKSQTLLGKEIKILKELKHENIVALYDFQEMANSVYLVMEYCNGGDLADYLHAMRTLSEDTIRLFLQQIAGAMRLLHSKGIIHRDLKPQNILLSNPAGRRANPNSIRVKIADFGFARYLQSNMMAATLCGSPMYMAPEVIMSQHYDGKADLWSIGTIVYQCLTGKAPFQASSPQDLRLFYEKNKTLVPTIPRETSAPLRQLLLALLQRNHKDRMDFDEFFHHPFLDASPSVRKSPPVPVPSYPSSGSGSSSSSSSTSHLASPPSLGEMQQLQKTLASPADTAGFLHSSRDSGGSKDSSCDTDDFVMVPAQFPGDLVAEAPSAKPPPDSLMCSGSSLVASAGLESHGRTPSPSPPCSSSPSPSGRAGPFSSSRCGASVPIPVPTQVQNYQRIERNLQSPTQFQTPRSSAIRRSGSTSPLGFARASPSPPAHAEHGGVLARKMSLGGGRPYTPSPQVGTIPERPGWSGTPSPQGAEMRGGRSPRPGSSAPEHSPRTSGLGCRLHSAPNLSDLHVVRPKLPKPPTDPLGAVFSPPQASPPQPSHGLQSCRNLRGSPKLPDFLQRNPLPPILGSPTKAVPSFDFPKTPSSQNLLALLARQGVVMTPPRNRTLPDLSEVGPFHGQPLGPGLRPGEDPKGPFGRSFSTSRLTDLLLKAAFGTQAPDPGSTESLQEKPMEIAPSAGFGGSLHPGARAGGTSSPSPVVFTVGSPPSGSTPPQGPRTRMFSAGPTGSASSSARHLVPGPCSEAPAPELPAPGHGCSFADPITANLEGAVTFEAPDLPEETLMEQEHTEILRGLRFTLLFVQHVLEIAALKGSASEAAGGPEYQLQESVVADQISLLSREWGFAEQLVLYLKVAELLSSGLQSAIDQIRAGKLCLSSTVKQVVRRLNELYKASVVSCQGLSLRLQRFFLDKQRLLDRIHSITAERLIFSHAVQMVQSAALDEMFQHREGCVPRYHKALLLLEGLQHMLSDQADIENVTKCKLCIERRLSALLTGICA
METHOD: KINOMEscan competition binding
RUN_PARAMETERS: compound 10.0 µM
Below, each entry is listed alongside its reported kinase still bound, per cent of control.
Value expressed in %; do not type the unit.

Take a look at these entries with their results.
Query (molecule): `CCC(=O)N1CCN(c2ccc(-n3c(=O)ccc4cnc5ccc(-c6cnc7ccccc7c6)cc5c43)cc2C(F)(F)F)CC1` ; field requested: kinase still bound, per cent of control
100

// next record `CC(C)n1nc(-c2cc3cc(O)ccc3[nH]2)c2c(N)ncnc21`
86

Can you check `COc1ccc(-c2ccc3c(N4CCOCC4)nc(N4C[C@@H](C)O[C@@H](C)C4)nc3n2)cc1CO` next?
79

Shift focus to the following entry.
So what does the record say about kinase still bound, per cent of control for `COC(=O)Nc1ccc(-c2nc(N3CCOCC3)c3cnn(C4CCN(C(=O)OC)CC4)c3n2)cc1` ?
84

* * *

SYSTEM_NAME: TBK1 (human) (UniProt Q9UHD2)
Sequence (Q9UHD2 whole entry, looked up): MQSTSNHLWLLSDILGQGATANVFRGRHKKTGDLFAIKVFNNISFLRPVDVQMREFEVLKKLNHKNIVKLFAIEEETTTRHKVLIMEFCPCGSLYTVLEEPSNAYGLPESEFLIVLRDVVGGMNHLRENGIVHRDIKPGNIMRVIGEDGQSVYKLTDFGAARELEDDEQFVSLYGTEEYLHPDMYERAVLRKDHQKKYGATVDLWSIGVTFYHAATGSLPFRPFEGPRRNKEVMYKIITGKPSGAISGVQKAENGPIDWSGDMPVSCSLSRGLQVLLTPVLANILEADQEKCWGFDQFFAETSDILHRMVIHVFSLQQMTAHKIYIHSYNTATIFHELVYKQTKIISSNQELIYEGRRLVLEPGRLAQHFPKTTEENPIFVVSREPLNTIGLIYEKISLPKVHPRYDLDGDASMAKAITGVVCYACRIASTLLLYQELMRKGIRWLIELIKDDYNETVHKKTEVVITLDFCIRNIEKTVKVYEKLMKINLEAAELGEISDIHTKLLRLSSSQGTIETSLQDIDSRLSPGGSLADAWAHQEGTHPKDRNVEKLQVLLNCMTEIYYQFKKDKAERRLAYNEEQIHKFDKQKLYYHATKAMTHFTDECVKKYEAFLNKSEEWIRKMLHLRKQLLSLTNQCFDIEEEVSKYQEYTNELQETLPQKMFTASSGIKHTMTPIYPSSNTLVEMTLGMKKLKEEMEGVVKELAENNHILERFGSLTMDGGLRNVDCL
RUN_PARAMETERS: compound 10.0 µM
Property: per cent of control; scope: individual compounds
A number alone suffices; assume %.

A selection of reference data follows.
Can you share its per cent of control? I mean this compound: `CC(C)n1nc(-c2cc3cc(O)ccc3[nH]2)c2c(N)ncnc21`
95

Try the compound `COC(=O)Nc1ccc(-c2nc(N3CCOCC3)c3cnn(C4CCN(C(=O)OC)CC4)c3n2)cc1`
94

And the next one, `CCC(=O)N1CCN(c2ccc(-n3c(=O)ccc4cnc5ccc(-c6cnc7ccccc7c6)cc5c43)cc2C(F)(F)F)CC1` ?
87

Field: next compound
# lookup: per cent of control of `COc1ccc(-c2ccc3c(N4CCOCC4)nc(N4C[C@@H](C)O[C@@H](C)C4)nc3n2)cc1CO`
89

* * *

SYSTEM_NAME: MYO3A (human) (UniProt Q8NEV4)
Sequence (Q8NEV4 whole entry, looked up): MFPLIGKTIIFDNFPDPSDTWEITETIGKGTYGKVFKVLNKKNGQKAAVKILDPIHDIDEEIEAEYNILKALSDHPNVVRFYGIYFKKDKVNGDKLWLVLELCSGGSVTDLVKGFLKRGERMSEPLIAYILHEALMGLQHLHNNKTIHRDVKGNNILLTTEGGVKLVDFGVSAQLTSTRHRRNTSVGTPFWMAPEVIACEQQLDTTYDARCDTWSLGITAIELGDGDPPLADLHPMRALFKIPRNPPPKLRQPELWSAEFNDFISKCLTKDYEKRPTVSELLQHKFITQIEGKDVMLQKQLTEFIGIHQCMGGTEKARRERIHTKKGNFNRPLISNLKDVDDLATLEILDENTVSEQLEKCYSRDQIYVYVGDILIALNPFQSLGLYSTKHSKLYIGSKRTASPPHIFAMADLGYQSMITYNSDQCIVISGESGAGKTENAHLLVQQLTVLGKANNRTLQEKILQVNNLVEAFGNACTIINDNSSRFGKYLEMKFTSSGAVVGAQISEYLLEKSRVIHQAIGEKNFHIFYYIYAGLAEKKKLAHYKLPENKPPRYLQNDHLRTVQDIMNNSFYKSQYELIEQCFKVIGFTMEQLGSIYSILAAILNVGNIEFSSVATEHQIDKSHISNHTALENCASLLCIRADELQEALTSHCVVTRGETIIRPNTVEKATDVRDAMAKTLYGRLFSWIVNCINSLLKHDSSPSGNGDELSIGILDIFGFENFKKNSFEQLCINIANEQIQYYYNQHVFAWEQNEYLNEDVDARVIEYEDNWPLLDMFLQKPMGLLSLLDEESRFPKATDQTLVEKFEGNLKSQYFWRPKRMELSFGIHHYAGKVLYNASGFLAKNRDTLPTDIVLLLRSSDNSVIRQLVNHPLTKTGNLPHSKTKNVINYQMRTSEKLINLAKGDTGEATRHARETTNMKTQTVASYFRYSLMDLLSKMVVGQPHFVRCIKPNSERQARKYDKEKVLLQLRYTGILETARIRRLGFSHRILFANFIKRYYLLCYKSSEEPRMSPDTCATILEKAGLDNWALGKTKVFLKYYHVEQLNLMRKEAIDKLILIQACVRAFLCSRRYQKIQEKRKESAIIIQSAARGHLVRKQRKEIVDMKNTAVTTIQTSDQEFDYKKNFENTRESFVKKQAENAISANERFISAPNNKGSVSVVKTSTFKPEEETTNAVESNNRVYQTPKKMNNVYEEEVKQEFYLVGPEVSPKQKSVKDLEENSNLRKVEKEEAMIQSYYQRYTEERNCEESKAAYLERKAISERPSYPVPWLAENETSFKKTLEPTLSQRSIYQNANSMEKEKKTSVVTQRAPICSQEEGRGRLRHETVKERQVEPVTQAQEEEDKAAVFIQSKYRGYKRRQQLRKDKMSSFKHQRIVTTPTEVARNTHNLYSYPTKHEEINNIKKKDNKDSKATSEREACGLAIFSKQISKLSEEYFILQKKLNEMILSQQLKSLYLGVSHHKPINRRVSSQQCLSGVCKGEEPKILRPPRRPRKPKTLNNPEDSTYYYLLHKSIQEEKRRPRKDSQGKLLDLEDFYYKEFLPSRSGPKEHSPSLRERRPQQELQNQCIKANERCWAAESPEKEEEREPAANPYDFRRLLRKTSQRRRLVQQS
METHOD: KINOMEscan competition binding
RUN_PARAMETERS: compound 10.0 µM
PARAMETER_MEASURED: kinase still bound, per cent of control

Some compounds with known kinase still bound, per cent of control results, for comparison:
Quick one: kinase still bound, per cent of control for `COC(=O)Nc1ccc(-c2nc(N3CCOCC3)c3cnn(C4CCN(C(=O)OC)CC4)c3n2)cc1` ?
100%

Now consider `CCC(=O)N1CCN(c2ccc(-n3c(=O)ccc4cnc5ccc(-c6cnc7ccccc7c6)cc5c43)cc2C(F)(F)F)CC1` and answer again.
100%

// same read-out, input: `COc1ccc(-c2ccc3c(N4CCOCC4)nc(N4C[C@@H](C)O[C@@H](C)C4)nc3n2)cc1CO`
97%

Pending compound:
Quick one: kinase still bound, per cent of control of `CC(C)n1nc(-c2cc3cc(O)ccc3[nH]2)c2c(N)ncnc21` ?
12%
